- Tested on: PTEN (lipid phosphatase activity) in human colon cancer cell line SW620
- Method Summary: cells
- Assay type: cell-based
- Assay Conditions: Homo sapiens, SW-620, 48 h, compound 5 μM, PTEN immunoprecipitation, diC8-PIP3 substrate, Biomol Green, read-out: PTEN activity (relative fold @5 μM)
Test Readout: fold induction at 5 µM

[[record]]
compound = "O=C(NCc1cncs1)C1CN(Cc2c[nH]c3ccc(C(F)(F)F)cc23)C1 [Example 36]"
assay_target = "PTEN (lipid phosphatase activity) in human colon cancer cell line SW620"
readout_number = 1.7

[[record]]
compound = "O=C(C1CCN(Cc2ccc3[nH]ccc3c2)CC1)N1CCn2cc(C(F)(F)F)nc2C1 [Example 17]"
assay_target = "PTEN (lipid phosphatase activity) in human colon cancer cell line SW620"
readout_number = 2.2

[[record]]
compound = "O=C(NCc1nc2ccccc2o1)C1CCN(Cc2ccc3[nH]ccc3c2)CC1 [Example 18]"
assay_target = "PTEN (lipid phosphatase activity) in human colon cancer cell line SW620"
readout_number = 2

[[record]]
compound = "Cc1cc2nc(CNC(=O)C3CCN(Cc4c[nH]c5ccc(Cl)cc45)CC3)[nH]c2cc1C [Example 3]"
assay_target = "PTEN (lipid phosphatase activity) in human colon cancer cell line SW620"
readout_number = 1.5

[[record]]
compound = "O=C(NCc1cncs1)C1CCN(Cc2c[nH]c3ccc(C(F)(F)F)cc23)CC1 [Example 31]"
assay_target = "PTEN (lipid phosphatase activity) in human colon cancer cell line SW620"
readout_number = 1.5

[[record]]
compound = "CCC(NC(=O)C1CCN(Cc2c[nH]c3ccc(C(F)(F)F)cc23)CC1)c1nc2ccccc2[nH]1 (stereo not drawn) [Example 35]"
assay_target = "PTEN (lipid phosphatase activity) in human colon cancer cell line SW620"
readout_number = 1.5

[[record]]
compound = "O=C(NCc1nc2cc(F)c(F)cc2[nH]1)C1CCN(Cc2c[nH]c3ccc(C(F)(F)F)cc23)CC1 [Example 39]"
assay_target = "PTEN (lipid phosphatase activity) in human colon cancer cell line SW620"
readout_number = 1.6

[[record]]
compound = "CC(NC(=O)C1CCN(Cc2c[nH]c3ccc(F)cc23)CC1)c1nc2ccccc2[nH]1 (stereo not drawn) [Example 50]"
assay_target = "PTEN (lipid phosphatase activity) in human colon cancer cell line SW620"
readout_number = 2.6

[[record]]
compound = "O=C(NCc1nccs1)N1CCN(Cc2c[nH]c3ccc(Cl)cc23)CC1 [Example 76]"
assay_target = "PTEN (lipid phosphatase activity) in human colon cancer cell line SW620"
readout_number = 1.7

